Values were extracted from ChEMBL document CHEMBL5143568.

Each item that follows carries a reported inhibition at 10 µM.
# tested target: Xanthine dehydrogenase/oxidase (Homo sapiens, UniProt P47989)
# Sequence (P47989 whole entry): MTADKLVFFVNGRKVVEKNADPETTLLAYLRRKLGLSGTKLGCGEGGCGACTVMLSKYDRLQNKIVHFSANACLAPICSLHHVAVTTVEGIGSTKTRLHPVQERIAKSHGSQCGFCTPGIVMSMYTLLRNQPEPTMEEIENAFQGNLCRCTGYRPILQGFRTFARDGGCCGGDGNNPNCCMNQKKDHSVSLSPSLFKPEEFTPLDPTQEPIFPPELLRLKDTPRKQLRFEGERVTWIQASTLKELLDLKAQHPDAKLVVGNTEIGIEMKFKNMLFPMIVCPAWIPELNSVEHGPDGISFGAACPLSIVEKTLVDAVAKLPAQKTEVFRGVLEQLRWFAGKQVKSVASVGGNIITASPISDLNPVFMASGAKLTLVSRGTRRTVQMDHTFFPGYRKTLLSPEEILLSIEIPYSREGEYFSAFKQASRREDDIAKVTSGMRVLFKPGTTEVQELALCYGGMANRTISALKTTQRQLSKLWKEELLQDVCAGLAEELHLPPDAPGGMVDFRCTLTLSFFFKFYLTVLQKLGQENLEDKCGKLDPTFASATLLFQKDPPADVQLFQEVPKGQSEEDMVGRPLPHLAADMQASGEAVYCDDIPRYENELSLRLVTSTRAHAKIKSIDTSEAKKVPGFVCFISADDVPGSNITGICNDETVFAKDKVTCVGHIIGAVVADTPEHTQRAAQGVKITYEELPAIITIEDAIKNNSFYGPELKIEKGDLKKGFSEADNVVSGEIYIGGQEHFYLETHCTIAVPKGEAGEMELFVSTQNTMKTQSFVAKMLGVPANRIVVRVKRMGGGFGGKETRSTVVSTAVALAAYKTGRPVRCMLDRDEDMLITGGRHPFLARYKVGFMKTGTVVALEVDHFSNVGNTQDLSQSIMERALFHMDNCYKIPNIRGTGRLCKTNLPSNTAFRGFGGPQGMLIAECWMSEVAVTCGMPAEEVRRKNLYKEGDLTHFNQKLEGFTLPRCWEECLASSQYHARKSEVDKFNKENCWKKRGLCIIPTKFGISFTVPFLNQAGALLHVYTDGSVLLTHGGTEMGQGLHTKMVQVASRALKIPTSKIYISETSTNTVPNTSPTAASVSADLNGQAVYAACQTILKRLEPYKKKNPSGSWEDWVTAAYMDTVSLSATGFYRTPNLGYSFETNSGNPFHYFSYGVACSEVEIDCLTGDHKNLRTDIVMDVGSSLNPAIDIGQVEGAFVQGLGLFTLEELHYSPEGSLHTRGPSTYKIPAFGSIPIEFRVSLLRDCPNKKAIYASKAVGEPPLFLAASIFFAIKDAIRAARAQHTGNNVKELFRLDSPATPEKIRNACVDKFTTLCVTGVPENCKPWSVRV
# assay explanation: Inhibition of xanthine oxidase (unknown origin) at 10 uM measured by spectrophotometric analysis relative to control

line notation: COc1cc(/C=C2/SC(S)=NC2=O)ccc1Cc1ccccc1Cl
inhibition at 10 µM: < 40%

line notation: Cc1ccc(C(=O)Oc2cccc(/C=C3\SC(N)=NC3=O)c2)cc1
inhibition at 10 µM: < 40%

line notation: COc1ccc(/C=C2/SC(N)=NC2=O)cc1
inhibition at 10 µM: < 40%
